- Test Target: chloride channel
- Protocol Details: In vitro human erythrocyte chloride conductance
- Assay Conditions: suspensions of human erythrocytes; from Cl- netfluxes and membrane potentials; read-out: KD-value (chloride channel blocking activity, membrane Cl-conductance)

# Molecule, Kd, nM
rows = [
    ("O=C(CC(=O)c1cc(C(F)(F)F)cc(C(F)(F)F)c1)Nc1ccc(-c2ccc(OC(F)(F)F)cc2)cc1-c1nnn[nH]1 [Compound 3]", 210),
]

* * *

- Test Target: UniProt:Q12791
- Sequence (Q12791 whole entry): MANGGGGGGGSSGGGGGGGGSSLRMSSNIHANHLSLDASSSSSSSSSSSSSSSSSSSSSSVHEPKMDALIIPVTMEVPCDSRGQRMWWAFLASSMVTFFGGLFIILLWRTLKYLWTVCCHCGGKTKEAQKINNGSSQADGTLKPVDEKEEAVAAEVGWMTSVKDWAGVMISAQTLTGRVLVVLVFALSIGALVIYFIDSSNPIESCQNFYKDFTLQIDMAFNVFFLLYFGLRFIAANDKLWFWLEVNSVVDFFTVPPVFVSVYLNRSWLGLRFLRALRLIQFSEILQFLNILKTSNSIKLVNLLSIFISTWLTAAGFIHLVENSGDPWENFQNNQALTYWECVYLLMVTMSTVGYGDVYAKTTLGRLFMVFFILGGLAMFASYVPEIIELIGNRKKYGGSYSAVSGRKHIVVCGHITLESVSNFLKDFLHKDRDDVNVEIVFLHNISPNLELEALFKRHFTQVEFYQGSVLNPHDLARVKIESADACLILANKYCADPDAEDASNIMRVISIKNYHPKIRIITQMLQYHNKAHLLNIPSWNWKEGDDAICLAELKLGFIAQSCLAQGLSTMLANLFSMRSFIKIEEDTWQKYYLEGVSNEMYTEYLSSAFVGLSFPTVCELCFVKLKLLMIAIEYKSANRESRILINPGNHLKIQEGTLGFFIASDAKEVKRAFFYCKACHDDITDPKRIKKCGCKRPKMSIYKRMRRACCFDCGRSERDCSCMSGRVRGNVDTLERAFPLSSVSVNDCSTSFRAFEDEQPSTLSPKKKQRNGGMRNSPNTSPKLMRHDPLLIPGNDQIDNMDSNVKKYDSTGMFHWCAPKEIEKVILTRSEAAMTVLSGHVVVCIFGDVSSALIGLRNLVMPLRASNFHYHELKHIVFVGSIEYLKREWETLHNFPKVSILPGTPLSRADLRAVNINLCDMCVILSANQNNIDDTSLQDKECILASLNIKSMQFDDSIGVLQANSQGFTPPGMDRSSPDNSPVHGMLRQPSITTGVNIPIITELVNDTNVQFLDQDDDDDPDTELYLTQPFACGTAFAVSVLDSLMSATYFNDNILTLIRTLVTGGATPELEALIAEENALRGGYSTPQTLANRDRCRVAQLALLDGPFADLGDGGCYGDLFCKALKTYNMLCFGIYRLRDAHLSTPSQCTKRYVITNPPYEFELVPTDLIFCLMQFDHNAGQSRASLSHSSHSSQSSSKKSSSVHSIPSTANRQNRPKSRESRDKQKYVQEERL
- Protocol Details: BK channel activation, two-electrode voltage clamp in Xenopus laevis oocytes
- Assay Conditions: BK channels heterologously expressed in Xenopus laevis oocytes; 0.01-31.6 μM compound; ΔV vs. control conductance at +100 mV; read-out: EC50 for the left-shift of the BKCa-activation curve

# Compound, Value Units, EC50
measured = [
    ("O=C(CC(=O)c1ccc(Cl)c(C(F)(F)F)c1)Nc1cc(Cl)ccc1-c1nnn[nH]1 [Compound 4]", "nM", 1800),
]
